system_name: Elastase (Pseudomonas aeruginosa (strain ATCC 15692 / PAO1 / 1C / PRS 101 / LMG12228))
Sequence (P14756 whole entry): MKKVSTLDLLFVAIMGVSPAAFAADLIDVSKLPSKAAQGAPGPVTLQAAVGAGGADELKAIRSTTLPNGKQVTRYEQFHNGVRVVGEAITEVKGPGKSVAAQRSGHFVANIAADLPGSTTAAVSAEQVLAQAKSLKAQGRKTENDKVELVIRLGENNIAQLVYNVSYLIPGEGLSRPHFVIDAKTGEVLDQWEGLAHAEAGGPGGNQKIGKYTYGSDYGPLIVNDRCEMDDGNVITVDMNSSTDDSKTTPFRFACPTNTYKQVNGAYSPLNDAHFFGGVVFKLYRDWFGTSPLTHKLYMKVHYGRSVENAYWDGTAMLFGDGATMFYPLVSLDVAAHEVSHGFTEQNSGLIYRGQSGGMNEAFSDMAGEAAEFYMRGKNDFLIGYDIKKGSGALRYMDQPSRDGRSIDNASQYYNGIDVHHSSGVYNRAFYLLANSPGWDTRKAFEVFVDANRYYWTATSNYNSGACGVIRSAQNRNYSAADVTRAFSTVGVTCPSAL
assay_summary: Inhibition of Pseudomonas aeruginosa LasB by fluorimetric assay in buffer of pH 7.2
condition_info: read-out: Ki
Give measured Ki for each item. Keep answers brief.
Give bare numbers, in µM.

Fill in Ki for each of the 2 molecules listed.
1. NC(=O)[C@H](Cc1ccccc1)NC(=O)[C@H](CS)NC(=O)CS
2. N=C(N)NCCC[C@H](NC(=O)[C@H](CO)NC(=O)CS)C(N)=O

# output
131
444

---

system_name: Elastase (Pseudomonas aeruginosa (strain ATCC 15692 / PAO1 / 1C / PRS 101 / LMG12228))
assay_summary: Inhibition of Pseudomonas aeruginosa LasB by fluorimetric assay in buffer of pH 7.2
condition_info: read-out: Ki
pKi: −log10 of the molar value.
Label met when pKi is at or above 4; otherwise label not met.

Answered cases to consult:
| mol | cat |
| --- | --- |
| N=C(N)NCCC[C@H](NC(=O)[C@H](CS)NC(=O)CS)C(N)=O | not met |
| NCCCC[C@H](NC(=O)[C@@H]1CCCN1C(=O)CS)C(N)=O | not met |
| N=C(N)NCCC[C@H](NC(=O)CS)C(=O)N[C@@H](CCCCN)C(N)=O | not met |
| NC(=O)[C@H](Cc1c[nH]c2ccccc12)NC(=O)[C@H](Cc1cnc[nH]1)NC(=O)CS | met |
| NC(=O)C[C@H](NC(=O)CS)C(=O)N[C@@H](Cc1ccccc1)C(N)=O | met |
| C[C@@H](O)[C@H](NC(=O)CS)C(=O)N[C@@H](Cc1ccccc1)C(N)=O | not met |
| NC(=O)[C@H](CCCN=C(N)N)NC(=O)[C@H](Cc1c[nH]c2ccccc12)NC(=O)CS | met |
| NC(=O)[C@H](Cc1ccccc1)NC(=O)[C@H](Cc1ccccc1)NC(=O)CS | not met |

# input Confirm if pKi reported for the compound NCCCC[C@H](NC(=O)[C@H](Cc1ccc(O)cc1)NC(=O)CS)C(N)=O is 4 or above.
# output met

# input Confirm if pKi reported for the compound NCCCC[C@H](NC(=O)[C@H](Cc1ccccc1)NC(=O)CS)C(N)=O is 4 or above.
# output met
